Tested on: 233499-124-R-J3-PDC complex spheroid growth
assayMethodText: Anticancer human tumor 233499-124-R-J3-PDC patient-derived colon adenocarcinoma cell line growth inhibition [AhR]
testConditions: second compound 10 µM; first compound 0.1 µM; active compounds read low
testReadout: viability, T/C (%)
Write the answer as a number in %, unit excluded.

// query Which viability, T/C is reported for this compound? CC1COCCN1c1cc(-c2ccnn2C)c2ccnc(-c3ccn[nH]3)c2n1 (stereo unspecified) + Cc1ccccc1N=Nc1ccc(NC(=O)c2ccnn2C)c(C)c1
// result 80.5

// query // next record Nc1ccn(C2OC(CO)C(O)C2(F)F)c(=O)n1 (stereo unspecified) + Cc1ccccc1N=Nc1ccc(NC(=O)c2ccnn2C)c(C)c1
// result 111

// query // next record NS(=O)(=O)OCC1CC(n2ccc3c(NC4CCc5ccccc54)ncnc32)CC1O (stereo unspecified) + Cc1ccccc1N=Nc1ccc(NC(=O)c2ccnn2C)c(C)c1
// result 108

// query // next record Nc1ccn(C2OC(CO)C(O)C2(F)F)c(=O)n1 (stereo unspecified) + CC(CO)NC(=O)c1cc(-c2ccc(Cl)cc2)nn(-c2cnn(C)c2)c1=O
// result 54.1

// query // next record O=C(C=Cc1cccc(S(=O)(=O)Nc2ccccc2)c1)NO + CC(CO)NC(=O)c1cc(-c2ccc(Cl)cc2)nn(-c2cnn(C)c2)c1=O
// result 73.9

// query // next record COc1cc(C2c3cc4c(cc3C(OC3OC5COC(C)OC5C(O)C3O)C3COC(=O)C23)OCO4)cc(OC)c1O (stereo unspecified) + CC(CO)NC(=O)c1cc(-c2ccc(Cl)cc2)nn(-c2cnn(C)c2)c1=O
// result 95.5

---

System: 233499-124-R-J3-PDC complex spheroid growth
assayMethodText: Anticancer human tumor 233499-124-R-J3-PDC cell line growth inhibition [AhR];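 also: spheroids exposed to agents for seven days before reading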
testConditions: second compound 1 µM; first compound 0.316 µM; active compounds read low
Criterion: viability, T/C strictly under 90%. Met: yes (1). Not met: no (0).

// query A record lists COc1cccc2c1C(=O)c1c(O)c3c(c(O)c1C2=O)CC(O)(C(=O)CO)CC3OC1CC(N)C(O)C(C)O1 (stereo not given) + Cc1ccccc1N=Nc1ccc(NC(=O)c2ccnn2C)c(C)c1 . Is its viability, T/C below 90%?
// result no (0)

// query // next record CC1(C)CCC(CN2CCN(c3ccc(C(=O)NS(=O)(=O)c4ccc(NCC5CCOCC5)c([N+](=O)[O-])c4)c(Oc4cnc5[nH]ccc5c4)c3)CC2)=C(c2ccc(Cl)cc2)C1 + Cc1cncc(-c2nc(NCCc3c[nH]c4ccccc34)c3ncn(C(C)C)c3n2)c1
// result yes (1)

// query // next record COc1cccc2c1C(=O)c1c(O)c3c(c(O)c1C2=O)CC(O)(C(=O)CO)CC3OC1CC(N)C(O)C(C)O1 (stereo not given) + Cc1cncc(-c2nc(NCCc3c[nH]c4ccccc34)c3ncn(C(C)C)c3n2)c1
// result yes (1)

// query // next record COc1cc(Nc2ncc3c(n2)-c2ccc(Cl)cc2C(c2c(F)cccc2OC)=NC3)ccc1C(=O)O + CC(CO)NC(=O)c1cc(-c2ccc(Cl)cc2)nn(-c2cnn(C)c2)c1=O
// result no (0)

// query // next record COc1ccc([C@@H](O)c2cc(-c3ncnc4cc(N5CCOCC5)ccc34)c(F)cc2Cl)nn1 + Cc1ccccc1N=Nc1ccc(NC(=O)c2ccnn2C)c(C)c1
// result no (0)

// query // next record CC1(C)CCC(CN2CCN(c3ccc(C(=O)NS(=O)(=O)c4ccc(NCC5CCOCC5)c([N+](=O)[O-])c4)c(Oc4cnc5[nH]ccc5c4)c3)CC2)=C(c2ccc(Cl)cc2)C1 + Cc1ccccc1N=Nc1ccc(NC(=O)c2ccnn2C)c(C)c1
// result no (0)

// query // next record O=C(C=Cc1cccc(S(=O)(=O)Nc2ccccc2)c1)NO + CC(CO)NC(=O)c1cc(-c2ccc(Cl)cc2)nn(-c2cnn(C)c2)c1=O
// result no (0)

// query // next record COc1ccc([C@@H](O)c2cc(-c3ncnc4cc(N5CCOCC5)ccc34)c(F)cc2Cl)nn1 + CC(CO)NC(=O)c1cc(-c2ccc(Cl)cc2)nn(-c2cnn(C)c2)c1=O
// result yes (1)

---

Assignment: determine reported viability, T/C for the given compounds.
System: 233499-124-R-J3-PDC complex spheroid growth
assayMethodText: Anticancer human tumor 233499-124-R-J3-PDC cell line growth inhibition [AhR];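 also: spheroids exposed to agents for seven days before reading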
testConditions: second compound 1 µM; first compound 0.316 µM; active compounds read low
Write the answer as a number in %, unit excluded.

// query API: value(readout= viability, T/C, system= 233499-124-R-J3-PDC complex spheroid growth, query= COc1cccc2c1C(=O)c1c(O)c3c(c(O)c1C2=O)CC(O)(C(=O)CO)CC3OC1CC(N)C(O)C(C)O1 (stereo not drawn) + CC(CO)NC(=O)c1cc(-c2ccc(Cl)cc2)nn(-c2cnn(C)c2)c1=O )
// result 98.4

// query // next record O=C(C=Cc1cccc(S(=O)(=O)Nc2ccccc2)c1)NO + Cc1cncc(-c2nc(NCCc3c[nH]c4ccccc34)c3ncn(C(C)C)c3n2)c1
// result 88.8

// query // next record Nc1ncn(C2CC(O)C(CO)O2)c(=O)n1 (stereo not drawn) + CC(CO)NC(=O)c1cc(-c2ccc(Cl)cc2)nn(-c2cnn(C)c2)c1=O
// result 85.6

---

Assignment: determine reported viability, T/C for the given compounds.
System: 233499-124-R-J3-PDC complex spheroid growth
assayMethodText: Anticancer human tumor 233499-124-R-J3-PDC cell line growth inhibition [AhR];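 also: spheroids exposed to agents for seven days before reading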
testConditions: second compound 3.16 µM; first compound 0.03 µM; active compounds read low
Write the answer as a number in %, unit excluded.

// query Which viability, T/C is reported for this compound? O=C(C=Cn1cnc(-c2cc(C(F)(F)F)cc(C(F)(F)F)c2)n1)NNc1cnccn1 + Cc1cncc(-c2nc(NCCc3c[nH]c4ccccc34)c3ncn(C(C)C)c3n2)c1
// result 81.6

// query // next record Nc1ncn(C2CC(O)C(CO)S2)c(=O)n1 (stereo unspecified) + Cc1ccccc1N=Nc1ccc(NC(=O)c2ccnn2C)c(C)c1
// result 107

// query // next record Nc1ncn(C2CC(O)C(CO)S2)c(=O)n1 (stereo unspecified) + CC(CO)NC(=O)c1cc(-c2ccc(Cl)cc2)nn(-c2cnn(C)c2)c1=O
// result 112

// query // next record Nc1ncn(C2CC(O)C(CO)S2)c(=O)n1 (stereo unspecified) + Cc1cncc(-c2nc(NCCc3c[nH]c4ccccc34)c3ncn(C(C)C)c3n2)c1
// result 103

// query // next record CC(C)CC(NC(=O)C(Cc1ccccc1)NC(=O)c1cnccn1)B(O)O (stereo unspecified) + Cc1ccccc1N=Nc1ccc(NC(=O)c2ccnn2C)c(C)c1
// result 5.62

// query // next record CCc1c2c(nc3ccc(O)cc13)-c1cc3c(c(=O)n1C2)COC(=O)[C@]3(O)CC + Cc1cncc(-c2nc(NCCc3c[nH]c4ccccc34)c3ncn(C(C)C)c3n2)c1
// result 86.1

---

Tested on: 233499-124-R-J3-PDC complex spheroid growth
assayMethodText: Anticancer human tumor 233499-124-R-J3-PDC cell line growth inhibition [AhR];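 also: spheroids exposed to agents for seven days before reading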
testConditions: second compound 1 µM; first compound 0.003 µM; active compounds read low
Assignment: determine reported viability, T/C for the given compounds.
Write the answer as a number in %, unit excluded.

// query Which viability, T/C is reported for this compound? CC(C)CC(NC(=O)C(Cc1ccccc1)NC(=O)c1cnccn1)B(O)O (stereo unspecified) + CC(CO)NC(=O)c1cc(-c2ccc(Cl)cc2)nn(-c2cnn(C)c2)c1=O
// result 100

// query // next record Nc1ncn(C2CC(O)C(CO)S2)c(=O)n1 (stereo unspecified) + CC(CO)NC(=O)c1cc(-c2ccc(Cl)cc2)nn(-c2cnn(C)c2)c1=O
// result 105

// query // next record CCc1c2c(nc3ccc(O)cc13)-c1cc3c(c(=O)n1C2)COC(=O)[C@]3(O)CC + Cc1cncc(-c2nc(NCCc3c[nH]c4ccccc34)c3ncn(C(C)C)c3n2)c1
// result 89.1

// query // next record Nc1ncn(C2CC(O)C(CO)S2)c(=O)n1 (stereo unspecified) + Cc1ccccc1N=Nc1ccc(NC(=O)c2ccnn2C)c(C)c1
// result 114

// query // next record Nc1ncn(C2CC(O)C(CO)S2)c(=O)n1 (stereo unspecified) + Cc1cncc(-c2nc(NCCc3c[nH]c4ccccc34)c3ncn(C(C)C)c3n2)c1
// result 66.2

// query // next record CC(C)CC(NC(=O)C(Cc1ccccc1)NC(=O)c1cnccn1)B(O)O (stereo unspecified) + Cc1cncc(-c2nc(NCCc3c[nH]c4ccccc34)c3ncn(C(C)C)c3n2)c1
// result 89

---

Assignment: determine reported viability, T/C for the given molecules.
Test system: 233499-124-R-J3-PDC complex spheroid growth
assayMethodText: Anticancer human tumor 233499-124-R-J3-PDC cell line growth inhibition [AhR];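 also: spheroids exposed to agents for seven days before reading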
testConditions: second compound 3.16 µM; first compound 0.03 µM; active compounds read low
Write the answer as a number in %, unit excluded.

// query API: value(readout= viability, T/C, system= 233499-124-R-J3-PDC complex spheroid growth, query= CCN(c1cc(-c2ccc(CN3CCOCC3)cc2)cc(C(=O)NCc2c(C)cc(C)[nH]c2=O)c1C)C1CCOCC1 + CC(CO)NC(=O)c1cc(-c2ccc(Cl)cc2)nn(-c2cnn(C)c2)c1=O )
// result 82

// query // next record CCc1c2c(nc3ccc(O)cc13)-c1cc3c(c(=O)n1C2)COC(=O)[C@]3(O)CC + CC(CO)NC(=O)c1cc(-c2ccc(Cl)cc2)nn(-c2cnn(C)c2)c1=O
// result 58

// query // next record CCN(c1cc(-c2ccc(CN3CCOCC3)cc2)cc(C(=O)NCc2c(C)cc(C)[nH]c2=O)c1C)C1CCOCC1 + Cc1ccccc1N=Nc1ccc(NC(=O)c2ccnn2C)c(C)c1
// result 93.9

All values here come from PubChem BioAssay AID1918993.
